Please go through the items and note down their EC50.
# measurement-target: T1, Ec FmlHLD
# T1 chain: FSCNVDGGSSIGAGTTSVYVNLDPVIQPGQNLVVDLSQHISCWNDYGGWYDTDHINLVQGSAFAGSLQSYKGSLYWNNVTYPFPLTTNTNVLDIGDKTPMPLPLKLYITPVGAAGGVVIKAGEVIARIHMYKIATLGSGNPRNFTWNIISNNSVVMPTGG
# experimental-protocol: ELISA
Your answer is read as µg/mL, so omit the unit and give the number.

Note to self: EC50 recorded for Ec H9 (antibody, V domains shown) VH: EVQLQQSGPVLVKPGPSVKISCKASGFTFTDYFVHWVKQSHGKSLEWIGLVSPYNGGTYYNQQFKGKATLTVDTSSSTAYMDLNSLTSEDSAVYYCARLLRGYWYFDVWGTGTTVTVSS VL: QIVLTQSPALMAASPGEKVTITCSVSSSISSSTLHWYQQKSETSPKPWIYGTSNLASGVPVRFGGSGSGTSYSLTISSMEAEDAATYYCQQWSTYPYTFGGGTKLEIKR was 0.015

Note to self: EC50 recorded for Kp 1A09 (antibody, V domains shown) VH: EVQLQQPGAELVKPGASVKLSCKASGYTFTSYWMHWVKQRPGQGLEWIGLIHPNSGSTYYNEKFKNKATLTVDKSSSTAYMQLSSLTSEDSAVYYCARWDDSYWYFKVWGTGTTVTVSS VL: QIVLTQSPAILSASPGEKVTMTCRASSSVSYMHWYQQKPGSSPKPWIYATSNLASGVPARFSGSGSGTSYSLTISRVEAEDAATYYCQQWSSNPYTFGGGTKLEIKR was 0.018

Note to self: EC50 recorded for Kp 2D07 (antibody, V domains shown) VH: EVQLQQSGPELVRPGASVKISCKASGYTFTDYYIHWLKQRPGQGLEWIGLIFPGSGSIYCNEKFKGKATLTVDKSSTTAYMLLSSLTSEDSAVYFCARWETTAWYFDVWGTGTTVTVSS VL: QIVLTQSPAILSASPGEKVTMTCRASLSVSYMHWYQQKPGSSPKPWIYATSNLASGVPARFSGSGSGTSYSLTVSRVEAEDAATYYCQQWRSYPYTFGGGTKLEIKR was 0.0178

Note to self: EC50 recorded for Kp1 2H04 (antibody, V domains shown) VH: EVQLQQSGAELVKPGASVKLSCKASGYTFTSYWMHWVKQRPGQGLEWIGLIHPNSSSTYYNEKFKTRATLTVDKSSSTAYMQLSSLTSEDSAVYYCARLGYGNSYWYFDVWGTGTTVTVSS VL: QIVLTQSPALMAASPGEKVTITCSVSSSISSSNLHWYQQKSETSPKPWIYGTSNLASGVPIRFSGSGSGTSYSLTISSLEAEDAATYYCQQWRSYPWTFGGGTKLEIKR was 0.0154
